System: Tetranychus urticae (Two-spotted spider mite)
Assay: Tetranychus urticae bean leaf disc spray test
Format: in vivo
Conditions: foliar, 192 h, application rate of 200 ppm, mortality on mixed population (mobile stages) 8 days after infestation
A collection of molecules and their measured pest or weed control at 200 ppm

- MOLECULE: "Cn1nc(C(F)(F)C(F)(F)F)c(C(F)(F)F)c1-c1cc(-c2ccc(Cl)c(C(=O)NC3(C(N)=S)CC3)c2)on1"
  TGT: "Tetranychus urticae (Two-spotted spider mite)"
  RESULT: "≥ 80%"
- MOLECULE: "Cn1nc(C(F)(F)C(F)(F)F)c(C(F)(F)F)c1-c1cc(-c2ccc(Cl)c(C(=O)NC3CC3)c2)on1"
  TGT: "Tetranychus urticae (Two-spotted spider mite)"
  RESULT: "≥ 80%"
- MOLECULE: "Cn1nc(C(F)(F)C(F)(F)F)c(C(F)(F)F)c1-c1cc(-c2ccc(Cl)c(C(=O)NC3CC3)c2)[nH]n1"
  TGT: "Tetranychus urticae (Two-spotted spider mite)"
  RESULT: "≥ 80%"
- MOLECULE: "Cn1nc(C(F)(F)C(F)(F)F)c(C(F)(F)F)c1-c1cc(-c2ccc(Cl)c(C(=O)NCc3ccccc3)c2)on1"
  TGT: "Tetranychus urticae (Two-spotted spider mite)"
  RESULT: "≥ 80%"
- MOLECULE: "Cn1nc(-c2c(C(F)(F)F)c(C(F)(F)C(F)(F)F)nn2C)cc1-c1ccc(Cl)c(C(=O)NC2CC2)c1"
  TGT: "Tetranychus urticae (Two-spotted spider mite)"
  RESULT: "≥ 80%"

### Prompt I'd like to know its pest or weed control at 200 ppm. The molecule in question is `Cn1nc(C(F)(F)C(F)(F)F)c(C(F)(F)F)c1-c1cc(-c2ccc(Cl)c(C(=O)Nc3ccc(Cl)cc3)c2)on1`
### Response ≥ 80%

### Prompt I'd like to know its pest or weed control at 200 ppm. The molecule in question is `Cn1nc(C(F)(F)C(F)(F)F)c(C(F)(F)F)c1-c1nc(-c2ccc(Cl)c(C(=O)NC3(C#N)CC3)c2)cs1`
### Response ≥ 80%

### Prompt I'd like to know its pest or weed control at 200 ppm. The molecule in question is `Cn1nc(C(F)(F)C(F)(F)F)c(C(F)(F)F)c1-c1cc(-c2ccc(Cl)c(C(=O)NC3CC3)c2)sn1`
### Response ≥ 80%

### Prompt I'd like to know its pest or weed control at 200 ppm. The molecule in question is `CCNC(=O)c1cc(-c2cc(-c3c(C(F)(F)F)c(C(F)(F)C(F)(F)F)nn3C)no2)ccc1Cl`
### Response ≥ 80%

====

A collection of compounds and their measured pest or weed control at 200 ppm
Test system: Tetranychus urticae (Two-spotted spider mite)
Experiment: Tetranychus urticae bean leaf disc spray test
Type: in vivo
Settings: foliar, 192 h, application rate of 200 ppm, mortality on mixed population (mobile stages) 8 days after infestation

- COMPOUND: "CC(C)NC(=O)c1cc(-c2cc(-c3c(C(F)(F)F)c(C(F)(F)C(F)(F)F)nn3C)no2)ccc1Cl"
  RESULT: "≥ 80%"
- COMPOUND: "CC(C)CNC(=O)c1cc(-c2cc(-c3c(C(F)(F)F)c(C(F)(F)C(F)(F)F)nn3C)no2)ccc1Cl"
  RESULT: "≥ 80%"
- COMPOUND: "CNC(=O)c1cc(-c2cc(-c3c(C(F)(F)F)c(C(F)(F)C(F)(F)F)nn3C)no2)ccc1Cl"
  RESULT: "≥ 80%"
- COMPOUND: "Cn1cc(-c2c(C(F)(F)F)c(C(F)(F)C(F)(F)F)nn2C)nc1-c1ccc(Cl)c(C(=O)NC2CC2)c1"
  RESULT: "≥ 80%"
- COMPOUND: "C#CCNC(=O)c1cc(-c2cc(-c3c(C(F)(F)F)c(C(F)(F)C(F)(F)F)nn3C)no2)ccc1Cl"
  RESULT: "≥ 80%"

### Prompt Param readout= pest or weed control at 200 ppm; system= Tetranychus urticae (Two-spotted spider mite); entry= `C=C(F)CNC(=O)c1cc(-c2cc(-c3c(C(F)(F)F)c(C(F)(F)C(F)(F)F)nn3C)no2)ccc1Cl` ; returns value.
### Response ≥ 80%

### Prompt Param readout= pest or weed control at 200 ppm; system= Tetranychus urticae (Two-spotted spider mite); entry= `Cn1nc(-c2ccc(Cl)c(C(=O)NC3CC3)c2)cc1-c1c(C(F)(F)F)c(C(F)(F)C(F)(F)F)nn1C` ; returns value.
### Response ≥ 80%

### Prompt Param readout= pest or weed control at 200 ppm; system= Tetranychus urticae (Two-spotted spider mite); entry= `Cn1nc(C(F)(F)C(F)(F)F)c(C(F)(F)F)c1-c1cc(-c2ccc(Cl)c(C(=O)Nc3ccncc3)c2)on1` ; returns value.
### Response ≥ 80%

### Prompt Param readout= pest or weed control at 200 ppm; system= Tetranychus urticae (Two-spotted spider mite); entry= `Cn1nc(C(F)(F)C(F)(F)F)c(C(F)(F)F)c1-c1cc(-c2ccc(Cl)c(C(N)=O)c2)on1` ; returns value.
### Response ≥ 80%

### Prompt Param readout= pest or weed control at 200 ppm; system= Tetranychus urticae (Two-spotted spider mite); entry= `Cn1nc(C(F)(F)C(F)(F)F)c(C(F)(F)F)c1-c1cc(-c2ccc(Cl)c(C(=O)NC3(C#N)CC3)c2)on1` ; returns value.
### Response ≥ 80%

### Prompt Param readout= pest or weed control at 200 ppm; system= Tetranychus urticae (Two-spotted spider mite); entry= `Cn1nc(C(F)(F)C(F)(F)F)c(C(F)(F)F)c1-c1cc(-c2ccc(Cl)c(C(=O)NC3(C#N)CC3)c2)no1` ; returns value.
### Response ≥ 80%

====

Test system: Spodoptera littoralis (Egyptian cotton leaf worm)
Test: Spodoptera littoralis cotton leaf disc spray test, L1 larvae
Assay type: in vivo
Conditions: foliar, 72 h, application rate of 200 ppm, 3 days after infestation, L1 larvae, read-out: mortality
READOUT_NAME: mortality at 200 ppm

Solved cases (4 shown):
- CHEMICAL_STRUCTURE: "CC(C)NC(=O)c1cc(-c2cc(-c3c(C(F)(F)F)c(C(F)(F)C(F)(F)F)nn3C)no2)ccc1Cl"
  READOUT_NAME: "mortality at 200 ppm"
  RESULT: "≥ 80%"
- CHEMICAL_STRUCTURE: "CC(C)CNC(=O)c1cc(-c2cc(-c3c(C(F)(F)F)c(C(F)(F)C(F)(F)F)nn3C)no2)ccc1Cl"
  READOUT_NAME: "mortality at 200 ppm"
  RESULT: "≥ 80%"
- CHEMICAL_STRUCTURE: "Cn1nc(-c2c(C(F)(F)F)c(C(F)(F)C(F)(F)F)nn2C)cc1-c1ccc(Cl)c(C(=O)NC2CC2)c1"
  READOUT_NAME: "mortality at 200 ppm"
  RESULT: "≥ 80%"
- CHEMICAL_STRUCTURE: "Cn1nc(C(F)(F)C(F)(F)F)c(C(F)(F)F)c1-c1csc(-c2ccc(Cl)c(C(=O)NC3CC3)c2)n1"
  READOUT_NAME: "mortality at 200 ppm"
  RESULT: "≥ 80%"

### Prompt I'd like to know its mortality at 200 ppm. The compound in question is `C=C(C)CNC(=O)c1cc(-c2cc(-c3c(C(F)(F)F)c(C(F)(F)C(F)(F)F)nn3C)no2)ccc1Cl`
### Response ≥ 80%

### Prompt I'd like to know its mortality at 200 ppm. The compound in question is `Cn1nc(C(F)(F)C(F)(F)F)c(C(F)(F)F)c1-c1cc(-c2ccc(Cl)c(C(=O)NC3CC3)c2)on1`
### Response ≥ 80%

====

A collection of compounds and their measured pest or weed control at 200 ppm
Test system: Tetranychus urticae (Two-spotted spider mite)
Experiment: Tetranychus urticae bean leaf disc spray test
Type: in vivo
Conditions: foliar, 192 h, application rate of 200 ppm, mortality on mixed population (mobile stages) 8 days after infestation
Procedure: The pesticidal/insecticidal properties of the compounds according to embodiments 1 or 2 can be illustrated via the following tests: Spodoptera littoralis (Egyptian cotton leaf worm) • Cotton leaf discs were placed onto agar in 24-well microtiter plates and sprayed with aqueous test solutions prepared from 10'000 ppm DMSO stock solutions. […] The samples were assessed for mortality and growth inhibition in comparison to untreated samples 5 days after infestation. […]

- COMPOUND: "Cn1nc(C(F)(F)C(F)(F)F)c(C(F)(F)F)c1-c1ncc(-c2ccc(Cl)c(C(=O)NC3(C#N)CC3)c2)s1"
  TGT: "Tetranychus urticae (Two-spotted spider mite)"
  RESULT: "≥ 80%"
- COMPOUND: "Cn1nc(C(F)(F)C(F)(F)F)c(C(F)(F)F)c1-c1cc(-c2ccc(Cl)c(C(=O)NC3CC3F)c2)on1 (stereo not drawn)"
  TGT: "Tetranychus urticae (Two-spotted spider mite)"
  RESULT: "≥ 80%"

Switching to the query record.
### Prompt I'd like to know its pest or weed control at 200 ppm. The compound in question is `Cn1nc(C(F)(F)C(F)(F)F)c(C(F)(F)F)c1-c1cc(-c2ccc(Cl)c(C(=O)NC3(C#N)CC3)c2)sn1`
### Response ≥ 80%

Values compiled from patent EP3325465B1.
